These measurements were taken from patent US8211429.

- Measurement target: T1, murine NRP1 (mouse, UniProt P97333)
- T1 chain: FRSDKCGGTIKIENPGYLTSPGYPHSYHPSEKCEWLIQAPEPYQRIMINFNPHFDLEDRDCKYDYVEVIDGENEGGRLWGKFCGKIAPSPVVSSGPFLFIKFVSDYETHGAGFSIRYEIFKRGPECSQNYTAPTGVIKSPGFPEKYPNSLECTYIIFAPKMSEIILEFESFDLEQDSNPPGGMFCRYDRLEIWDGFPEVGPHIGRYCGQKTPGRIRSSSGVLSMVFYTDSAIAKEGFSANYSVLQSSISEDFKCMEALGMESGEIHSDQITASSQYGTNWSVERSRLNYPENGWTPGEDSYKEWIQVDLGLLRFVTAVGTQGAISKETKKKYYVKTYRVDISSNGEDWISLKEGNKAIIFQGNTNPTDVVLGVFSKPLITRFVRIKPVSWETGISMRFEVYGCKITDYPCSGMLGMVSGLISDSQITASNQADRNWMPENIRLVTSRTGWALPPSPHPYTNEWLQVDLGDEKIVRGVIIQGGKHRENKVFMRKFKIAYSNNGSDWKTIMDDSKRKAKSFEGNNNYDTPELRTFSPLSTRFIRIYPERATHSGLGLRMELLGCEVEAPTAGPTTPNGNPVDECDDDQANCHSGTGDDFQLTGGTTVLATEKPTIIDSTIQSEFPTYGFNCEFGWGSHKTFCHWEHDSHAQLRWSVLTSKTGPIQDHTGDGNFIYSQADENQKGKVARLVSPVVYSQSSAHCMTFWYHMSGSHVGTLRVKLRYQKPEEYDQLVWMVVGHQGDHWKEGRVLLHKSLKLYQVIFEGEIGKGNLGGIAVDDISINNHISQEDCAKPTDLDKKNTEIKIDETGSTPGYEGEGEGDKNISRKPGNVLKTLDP
- Experiment: competition phage ELISA

- Binder: "YW107.4.38 (antibody, V domains shown) VH: EVQLVESGGGLVQPGGSLRLSCAASGFTFSSYAMSWVRQAPGKGLEWVSQISPAGGYTNYADSVKGRFTISADTSKNTAYLQMNSLRAEDTAVYYCARELPYYRMSKVMDVWGQGTLVTVSS VL: DIQMTQSPSSLSASVGDRVTITCRASQYLSSYLAWYQQKPGKAPKLLIYGASSRASGVPSRFSGSGSGTDFTLTISSLQPEDFATYYCQQYLRSPITFGQGTKVEIKR"
  IC50: "1.4 nM"
- Binder: "YW107.4.78 (antibody, V domains shown) VH: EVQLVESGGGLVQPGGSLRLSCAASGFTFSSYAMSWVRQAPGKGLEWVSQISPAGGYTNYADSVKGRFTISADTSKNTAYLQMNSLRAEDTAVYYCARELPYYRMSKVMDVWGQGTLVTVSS VL: DIQMTQSPSSLSASVGDRVTITCRASQYISSYLAWYQQKPGKAPKLLIYGASSRESGVPSRFSGSGSGTDFTLTISSLQPEDFATYYCQQYLSSPITFGQGTKVEIKR"
  IC50: "1.7 nM"
- Binder: "YW107.4.53 (antibody, V domains shown) VH: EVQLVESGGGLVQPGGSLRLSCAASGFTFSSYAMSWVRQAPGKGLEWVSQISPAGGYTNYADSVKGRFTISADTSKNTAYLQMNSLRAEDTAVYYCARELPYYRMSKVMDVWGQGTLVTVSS VL: DIQMTQSPSSLSASVGDRVTITCRASQYISSYLAWYQQKPGKAPKLLIYGASRRESGVPSRFSGSGSGTDFTLTISSLQPEDFATYYCQQYLNSPLTFGQGTKVEIKR"
  IC50: "1.7 nM"
